- SYSTEM NAME: T1, activated Protein C (APC) (human, UniProt P04070 43-197; P04070 212-461)
- T1 construct: also called human plasma APC
- T1 sequence (P04070 43-197, chain 1 of 2): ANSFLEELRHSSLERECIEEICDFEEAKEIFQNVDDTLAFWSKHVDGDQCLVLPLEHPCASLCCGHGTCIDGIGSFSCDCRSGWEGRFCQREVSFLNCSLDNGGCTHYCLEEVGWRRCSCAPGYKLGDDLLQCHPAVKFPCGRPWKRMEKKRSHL
- T1 sequence (P04070 212-461, chain 2 of 2): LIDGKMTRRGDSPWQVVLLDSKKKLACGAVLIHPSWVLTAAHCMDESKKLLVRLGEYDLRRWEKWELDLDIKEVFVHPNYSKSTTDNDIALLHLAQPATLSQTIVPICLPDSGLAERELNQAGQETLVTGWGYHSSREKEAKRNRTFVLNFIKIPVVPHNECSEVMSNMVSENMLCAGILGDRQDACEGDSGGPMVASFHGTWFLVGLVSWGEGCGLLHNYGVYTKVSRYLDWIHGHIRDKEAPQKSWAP
- EXPERIMENTAL DETAILS: ratio of rate constants, APC over thrombin
OBSERVABLE: fold inhibition APC/thrombin (fold)

{"BINDER": "FL α1AT Pitts C232S P2K (other, E. coli, SUMO tag removed; also called P2K α1AT Pitts; P2.G11) SDPQGDAAQKTDTSHHDQDHPTFNKITPNLAEFAFSLYRQLAHQSNSTNIFFSPVSIATAFAMLSLGTKADTHDEILEGLNFNLTEIPEAQIHEGFQELLRTLNQPDSQLQLTTGNGLFLSEGLKLVDKFLEDVKKLYHSEAFTVNFGDTEEAKKQINDYVEKGTQGKIVDLVKELDRDTVFALVNYIFFKGKWERPFEVKDTEEEDFHVDQVTTVKVPMMKRLGMFNIQHSKKLSSWVLLMKYLGNATAIFFLPDEGKLQHLENELTHDIITKFLENEDRRSASLHLPKLSITGTYDLKSVLGQLGITKVFSNGADLSGVTEEAPLKLSKAVHKAVLTIDEKGTEAAGAMFLEAIKRSIPPEVKFNKPFVFLMIEQNTKSPLFMGKVVNPTQK", "OBSERVABLE": "fold inhibition APC/thrombin", "READOUT VALUE": 1270}
